- Test system: HepG2
- method_summary: cytotoxicity call (relative viability < 0.9)
- conditions: 10 µM
The campaign covered roughly 39,000 compounds. About 3,300 (8.5%) were called active. Only a selection was taken, and actives are over-represented in it overall.
readout_kind: cytotoxicity call

Recorded cytotoxicity call, per entry:
[
  {
    "compound_structure": "Nc1cc(-c2ccccc2)ccc1O",
    "cytotoxicity call": "inactive"
  },
  {
    "compound_structure": "C[C@H]1CN([C@@H](C)CO)C(=O)Cc2cc(NS(C)(=O)=O)ccc2O[C@H]1CN(C)C(=O)Nc1ccc(F)cc1",
    "cytotoxicity call": "inactive"
  },
  {
    "compound_structure": "C[C@@H]1CN([C@H](C)CO)C(=O)c2cc(NC(=O)Cc3cn(C)c4ccccc34)ccc2O[C@@H]1CN(C)Cc1ccc(C(F)(F)F)cc1",
    "cytotoxicity call": "active"
  },
  {
    "compound_structure": "C[C@@H]1CN([C@@H](C)CO)C(=O)c2cc(NC(=O)Nc3ccc(C(F)(F)F)cc3)ccc2O[C@@H]1CN(C)Cc1ccncc1",
    "cytotoxicity call": "inactive"
  },
  {
    "compound_structure": "CNC[C@H]1OCCCC[C@@H](C)Oc2ccc(NS(=O)(=O)c3cn(C)cn3)cc2C(=O)N([C@@H](C)CO)C[C@H]1C",
    "cytotoxicity call": "inactive"
  }
]

Problem: Read the entry C[C@@H]1CN([C@H](C)CO)C(=O)c2cc(NC(=O)c3ccncc3)ccc2O[C@@H]1CN(C)Cc1ccc2c(c1)OCO2 and write its reported cytotoxicity call.
Result: inactive

Problem: Consider the molecule C[C@@H]1CN([C@@H](C)CO)C(=O)c2cc(NC(=O)Cc3cn(C)c4ccccc34)ccc2O[C@@H]1CN(C)C(=O)Nc1ccc(C(F)(F)F)cc1 and give its recorded cytotoxicity call.
Result: inactive

Problem: Please list cytotoxicity call recorded for the molecule COc1cccc(OC)c1O
Result: inactive

Problem: Identify measured cytotoxicity call corresponding to C[C@@H]1CN([C@H](C)CO)C(=O)c2cc(NC(=O)Cc3cn(C)c4ccccc34)ccc2O[C@H]1CN(C)C(=O)Nc1ccc(C(F)(F)F)cc1
Result: active

Problem: Output measured cytotoxicity call for this item: COc1ccc(NC(=O)N(C)C[C@@H]2OCCCC[C@@H](C)Oc3ccc(NC(=O)CCC(F)(F)F)cc3C(=O)N([C@H](C)CO)C[C@@H]2C)cc1
Result: inactive

---

- Tested on: HepG2
- method_summary: cytotoxicity call (relative viability < 0.9)
- conditions: 10 µM
The campaign covered roughly 39,000 compounds. About 3,300 (8.5%) were called active. This is one part of a sample in which actives are shown more often than they occur.
Pick one: active, inactive

Problem: Could you please tell me the result logged for Cc1ccc(S[C@]2(C(=O)NCCCN(C)C)CC(=O)N(Cc3cc(C(F)(F)F)cc(C(F)(F)F)c3)[C@@H]2c2ccc(CO)cc2)cc1 in this assay?
Result: inactive

Problem: What is the recorded call for this compound in the test? COC(=O)c1cn(-c2cccc(N)c2)nn1
Result: inactive

Problem: Record lookup: outcome of this test for Cc1ccc(S(=O)(=O)Nc2ccc3c(c2)C(=O)N([C@H](C)CO)C[C@H](C)[C@H](CN(C)CC2CC2)O3)cc1 ?
Result: inactive

Problem: Tell me the assay call for C[C@@H]1CCCCO[C@H](CN(C)Cc2ccc3c(c2)OCO3)[C@H](C)CN([C@H](C)CO)C(=O)c2cc(NC(=O)Nc3ccc(F)cc3)ccc2O1 please.
Result: inactive

Problem: Check the results log: what was the call for C/C=C/c1ccc2c(c1)O[C@@H](CN(C)S(=O)(=O)c1ccccc1OC)[C@H](C)CN([C@@H](C)CO)S2(=O)=O ?
Result: inactive

Problem: // return assay outcome for C[C@H]1CCCCO[C@H](CN(C)Cc2ccc3c(c2)OCO3)[C@@H](C)CN([C@@H](C)CO)C(=O)c2cc(NC(=O)Nc3ccc(F)cc3)ccc2O1
Result: active

Problem: Give the logged outcome of this assay for the following compound: Cc1cc2nc3c(=O)[nH]c(=O)nc-3n(CC(O)C(O)C(O)COP(=O)([O-])O)c2cc1C.[Na+] (configuration not stated)
Result: active

---

- Tested on: HepG2
- method_summary: cytotoxicity call (relative viability < 0.9)
- conditions: 10 µM
In all, about 39,000 compounds went through this assay and about 3,300 (8.5%) were called active. The full list was thinned out, with actives kept by preference.

[
  {
    "compound_structure": "Cc1ccc(S(=O)(=O)N(C)C[C@@H]2Oc3ccc(NC(=O)Nc4ccc(C(F)(F)F)cc4)cc3CC(=O)N([C@H](C)CO)C[C@@H]2C)cc1",
    "cytotoxicity call": "active"
  },
  {
    "compound_structure": "Cc1ccc(S(=O)(=O)N(C)C[C@@H]2Oc3ccc(NC(=O)Nc4ccc(C(F)(F)F)cc4)cc3CC(=O)N([C@@H](C)CO)C[C@H]2C)cc1",
    "cytotoxicity call": "active"
  }
]

---

- Tested on: HepG2
- method_summary: cytotoxicity call (relative viability < 0.9)
- conditions: 10 µM
Hit rate of the full screen: of about 39,000 compounds, about 3,300 (8.5%) were called active. Only a selection was taken, and actives are over-represented in it overall.
Outcomes you can answer with include only these: y for active, n for inactive

Problem: // outcome(item) with item = C[C@@H]1CN([C@H](C)CO)C(=O)c2cc(NC(=O)Nc3ccc4c(c3)OCO4)ccc2O[C@@H](C)CCCCO[C@@H]1CN(C)CC1CCCCC1
Result: n

Problem: Lab log entry: C[C@@H]1CCCCO[C@H](CN(C)CC2CCCCC2)[C@@H](C)CN([C@H](C)CO)C(=O)c2cc(NC(=O)Nc3ccc4c(c3)OCO4)ccc2O1 — outcome as called in the assay?
Result: n

Problem: How did this test come out for C[C@H]1CN([C@@H](C)CO)C(=O)c2cc(NC(=O)c3ccncc3)ccc2O[C@H]1CN(C)S(=O)(=O)c1ccccc1 ?
Result: n

Problem: Returns: the outcome recorded for C[C@@H]1CCCCO[C@@H](CN(C)CC2CC2)[C@@H](C)CN([C@H](C)CO)C(=O)c2cc(NC(=O)Nc3ccc4c(c3)OCO4)ccc2O1 in this assay.
Result: n

Problem: What is the recorded call for this compound in the test? C[C@@H]1CCCCO[C@@H](CN(C)CC2CCCCC2)[C@@H](C)CN([C@@H](C)CO)C(=O)c2cc(NC(=O)Nc3ccc4c(c3)OCO4)ccc2O1
Result: y

Problem: What did the test return for CC(C)[C@@H](N)C(=O)O ?
Result: n

Problem: Hi team, can someone confirm the assay call for COc1ccc(NC(=O)N(C)C[C@@H]2Oc3ccc(NC(=O)CCN4CCOCC4)cc3CC(=O)N([C@H](C)CO)C[C@@H]2C)cc1 ?
Result: n

Problem: Look up the recorded call for C[C@H](CO)N1C[C@H](C)[C@H](CN(C)S(=O)(=O)c2ccc(Cl)cc2)Oc2c(NC(=O)c3cnccn3)cccc2C1=O in this test.
Result: n

Problem: Hello, I am checking results. What call was entered for C[C@H](CO)N1C[C@H](C)[C@@H](CN(C)S(=O)(=O)c2ccc(Cl)cc2)Oc2ccc(NC(=O)Cn3cnnn3)cc2C1=O ?
Result: n

Problem: What was the test verdict on COc1ccc(NC(=O)N(C)C[C@H]2OCCCC[C@H](C)Oc3ccc(NC(=O)CCC(F)(F)F)cc3C(=O)N([C@H](C)CO)C[C@@H]2C)cc1 ?
Result: n

Problem: Identify the outcome logged in this assay for the compound shown: COc1ccc(NC(=O)N(C)C[C@@H]2OCCCC[C@@H](C)Oc3ccc(NS(=O)(=O)c4ccc(OC)cc4)cc3C(=O)N([C@@H](C)CO)C[C@@H]2C)cc1
Result: n

Problem: Recorded call for Cc1ccc(S(=O)(=O)Nc2cccc3c2O[C@@H](CN(C)C(=O)Nc2cccc4ccccc24)[C@@H](C)CN([C@@H](C)CO)C3=O)cc1 ?
Result: n

Problem: For this compound, state the assay outcome: Cc1ccc(S(=O)(=O)N[C@@H](Cc2ccccc2)C(=O)NCCCn2cc(-c3ccc(C(=O)NO)s3)nn2)cc1
Result: n

Problem: Returns: the outcome recorded for C[C@@H](O)[C@H](N)C(=O)O in this assay.
Result: y

Problem: Which outcome did this test record for the compound C[C@@H]1CN([C@H](C)CO)C(=O)c2cc(NS(=O)(=O)c3ccc(F)cc3)ccc2O[C@@H]1CN(C)S(=O)(=O)c1ccccc1 ?
Result: n

Problem: Given CCCCS(=N)(=O)CC[C@@H](N)C(=O)O (stereo not given in full) , state the outcome it received in this test.
Result: n

Problem: Could you please tell me the result logged for C[C@@H]1CCCCO[C@H](CN(C)CC2CC2)[C@@H](C)CN([C@H](C)CO)C(=O)c2cc(NC(=O)Nc3ccc4c(c3)OCO4)ccc2O1 in this assay?
Result: n

Problem: Please indicate how the test categorized Cc1cc(C(=O)N2CCNC(=O)C2(C)C)no1 .
Result: n

Problem: GET /call?item= C[C@@H]1CCCCO[C@H](CN(C)CC2CCCCC2)[C@H](C)CN([C@H](C)CO)C(=O)c2cc(NC(=O)Nc3ccc4c(c3)OCO4)ccc2O1 returns the recorded outcome of this test.
Result: n

Problem: Name the outcome recorded for C[C@@H]1CCCCO[C@@H](CN(C)CC2CC2)[C@H](C)CN([C@H](C)CO)C(=O)c2cc(NC(=O)Nc3ccc4c(c3)OCO4)ccc2O1 in the assay.
Result: n

Problem: Can you look up the reported call for C[C@H](CO)N1C[C@H](C)[C@H](CN(C)Cc2ccc(C(=O)O)cc2)Oc2c(NC(=O)C3CC3)cccc2C1=O for me?
Result: n

Problem: What did the test return for CS(=O)(=O)N1CCCn2c(nnc2Cn2cccn2)C1 ?
Result: n

Problem: Which outcome was entered for the compound COc1cccc(-c2ccc3c(c2)O[C@@H](CN(C)C(=O)C2CCOCC2)[C@H](C)CN([C@@H](C)CO)S3(=O)=O)c1 in this test?
Result: n

Problem: In this assay, the call recorded for C[C@H](CO)N1C[C@H](C)[C@@H](CN(C)CC2CC2)OCCCC[C@H](C)Oc2ccc(NC(=O)Nc3ccc4c(c3)OCO4)cc2C1=O was what?
Result: n

Problem: In this assay, the call recorded for c1ccc(-c2cccs2)nc1 was what?
Result: n

Problem: # lookup: test call for CCCNC(=O)N1C[C@H]2[C@@H](c3ccccc31)[C@H](CO)N2C(=O)CN1CCOCC1
Result: n

Problem: Could you kindly confirm the outcome this assay logged for C[C@@H]1CCCCO[C@@H](CN(C)CC2CCCCC2)[C@@H](C)CN([C@H](C)CO)C(=O)c2cc(NC(=O)Nc3ccc4c(c3)OCO4)ccc2O1 ?
Result: y

Problem: Please let me know the test result on file for CO[C@@H]1CN(C)C(=O)c2ccc(NC(=O)C3CC3)cc2OC[C@@H](C)N(C(=O)C2CCOCC2)C[C@@H]1C .
Result: n

Problem: # outcome recorded in this test, key = CC(C)NC(=O)Nc1ccc2c(c1)CC(=O)N([C@@H](C)CO)C[C@H](C)[C@@H](CN(C)S(=O)(=O)c1ccccc1)O2
Result: n

Problem: Which outcome was entered for the compound COc1ccc(S(=O)(=O)Nc2ccc3c(c2)C(=O)N([C@@H](C)CO)C[C@H](C)[C@@H](CN(C)C(=O)Nc2cccc4ccccc24)OCCCC[C@@H](C)O3)cc1 in this test?
Result: n
